Data credit: patent US20260151494A1

Entries and their RLU
- measurement.target: T1, human CD71 extracellular domain (human, UniProt P02786 89-760, biotinylated)
- T1 construct: also called hCD71; CD71-ECD
- T1 sequence (P02786 89-760): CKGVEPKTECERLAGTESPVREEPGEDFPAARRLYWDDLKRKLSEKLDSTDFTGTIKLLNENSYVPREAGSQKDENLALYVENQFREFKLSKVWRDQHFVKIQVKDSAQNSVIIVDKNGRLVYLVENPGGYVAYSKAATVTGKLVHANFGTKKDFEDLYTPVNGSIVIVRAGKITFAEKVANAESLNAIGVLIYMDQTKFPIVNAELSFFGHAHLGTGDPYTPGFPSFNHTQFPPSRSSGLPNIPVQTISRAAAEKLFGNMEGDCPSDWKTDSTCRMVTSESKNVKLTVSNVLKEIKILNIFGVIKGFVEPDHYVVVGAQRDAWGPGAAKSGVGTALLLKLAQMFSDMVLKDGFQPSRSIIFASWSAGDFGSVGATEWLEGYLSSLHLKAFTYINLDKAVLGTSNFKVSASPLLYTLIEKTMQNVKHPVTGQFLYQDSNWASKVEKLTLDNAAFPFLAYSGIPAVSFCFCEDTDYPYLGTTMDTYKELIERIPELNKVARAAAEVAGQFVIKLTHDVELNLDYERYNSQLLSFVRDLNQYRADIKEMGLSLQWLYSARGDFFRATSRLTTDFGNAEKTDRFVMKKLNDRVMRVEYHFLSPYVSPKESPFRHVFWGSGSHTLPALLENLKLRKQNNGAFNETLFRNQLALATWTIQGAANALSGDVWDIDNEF
- assay.procedure: primary ELISA; further: test concentration or dose not given here

# binder, RLU / RLU
measured = [
    ("CD71-binding FN3 domain of SEQ ID NO: 494 (designed binder) MLPAPKNLVVSRVTEDSARLSWTTPDAAFDSFFIGYLEPQPPGEAISLYVPGSERSYDLTGLKPGTEYNVTIQGVKGGFPSMPLSAIFTT", "3.2e+06"),
    ("CD71-binding FN3 domain of SEQ ID NO: 495 (designed binder) MLPAPKNLVVSRVTEDSARLSWTAPDAAFDSFFINYREDKWIGEAIVLTVPGSERSYDLTGLKPGTEYSVPIDGVKGGAASPPLSAIFTT", "1.14e+06"),
    ("CD71-binding FN3 domain of SEQ ID NO: 447 (designed binder) MLPAPKNLVVSRVTEDSARLSWTAPDAAFDSFFIGYLEPQPPGEAIYLYVPGSERSYDLTGLKPGTEYNVTIQGVKGGFPSYPLTAQFTT", "5.86e+06"),
    ("CD71-binding FN3 domain of SEQ ID NO: 521 (designed binder) MLPAPKNLVVSRVTEDSARLSWTAPDAAFDSFFIGYLEPQPPGEAIVLWVPGSERSYDLTGLKPGTEYNVTIQGVKGGFPSHPLVAHFTT", "5.62e+06"),
]
